experiment: In vivo pharmacokinetic (PK) studies in rats; parameters: species or system Sprague-Dawley (SD) rats; settings: male, Sprague-Dawley, rat, plasma; 10 mg/kg PO
value.type: Tmax (min)
Lab book: enter the figure in min, no units written.

Tell me its Tmax given Cn1c(=O)ccc2ccc(F)c(OCCNC[C@H]3CN(c4cnc5c(n4)NC(=O)CO5)C(=O)O3)c21 [Compound 2] as the entry.
15

----------
test: In vivo pharmacokinetic (PK) studies in rats; design: species or system Sprague-Dawley (SD) rats; details: male, Sprague-Dawley, rat, plasma; 30 mg/kg, PO
value.type: Tmax (min)
Lab book: enter the figure in min, no units written.

Tell me its Tmax given Cn1c(=O)ccc2ccc(F)c(OCCNC[C@H]3CN(c4cnc5c(n4)NC(=O)CO5)C(=O)O3)c21 as the entry.
30

----------
target: E. coli DNA gyrase (Escherichia coli, UniProt P0AES4+P0AES6); assay: biochemical; details: gel based supercoiling assay; read-out: E. coli DNA Gyrase IC50
value.type: pIC50
Reminder that pIC50 means the negative base-10 logarithm of the concentration expressed in mol/L.

Tell me its pIC50 given Cn1c(=O)ccc2ccc(F)c(OCCNC[C@H]3CN(c4cnc5c(n4)NC(=O)CO5)C(=O)O3)c21 as the entry.
7.92

Tell me its pIC50 given Cn1c(=O)cnc2ccc(F)c(OCCNC[C@H]3CN(c4cnc5c(n4)NC(=O)CO5)C(=O)O3)c21 as the entry.
7.82

Tell me its pIC50 given Cn1c(=O)cnc2ccc(F)c(OCCNC[C@H]3CN(c4cnc5c(n4)NC(=O)CS5)C(=O)O3)c21 as the entry.
7.66

----------
experiment: In vivo pharmacokinetic (PK) studies in rats; set-up: species or system Sprague-Dawley (SD) rats; settings: male, Sprague-Dawley, rat, plasma, po, 30 mg/kg; read-out: Bioavailability* (F, %)
value.type: bioavailability (%)
Lab book: enter the figure in %, no units written.

Tell me its bioavailability given Cn1c(=O)ccc2ccc(F)c(OCCNC[C@H]3CN(c4cnc5c(n4)NC(=O)CO5)C(=O)O3)c21 [Compound 2] as the entry.
66.8

----------
experiment: In vivo pharmacokinetic (PK) studies in rats; parameters: species or system Sprague-Dawley (SD) rats; conditions: male, Sprague-Dawley, rat, plasma; 5 mg/kg, IV
value.type: half-life (h)
Lab book: enter the figure in h, no units written.

Tell me its half-life given Cn1c(=O)ccc2ccc(F)c(OCCNC[C@H]3CN(c4cnc5c(n4)NC(=O)CO5)C(=O)O3)c21 as the entry.
1.53

----------
biological target: hERG potassium channel (Homo sapiens); construct: Chinese Hamster Ovary cell line stably expressing the full-length hERG potassium channel; assay: hERG inhibition assay, QPatch HTX automated electrophysiology; conditions: CHO cell line expressing hERG; whole-cell patch clamp, room temperature
Sequence (Q12809 whole entry): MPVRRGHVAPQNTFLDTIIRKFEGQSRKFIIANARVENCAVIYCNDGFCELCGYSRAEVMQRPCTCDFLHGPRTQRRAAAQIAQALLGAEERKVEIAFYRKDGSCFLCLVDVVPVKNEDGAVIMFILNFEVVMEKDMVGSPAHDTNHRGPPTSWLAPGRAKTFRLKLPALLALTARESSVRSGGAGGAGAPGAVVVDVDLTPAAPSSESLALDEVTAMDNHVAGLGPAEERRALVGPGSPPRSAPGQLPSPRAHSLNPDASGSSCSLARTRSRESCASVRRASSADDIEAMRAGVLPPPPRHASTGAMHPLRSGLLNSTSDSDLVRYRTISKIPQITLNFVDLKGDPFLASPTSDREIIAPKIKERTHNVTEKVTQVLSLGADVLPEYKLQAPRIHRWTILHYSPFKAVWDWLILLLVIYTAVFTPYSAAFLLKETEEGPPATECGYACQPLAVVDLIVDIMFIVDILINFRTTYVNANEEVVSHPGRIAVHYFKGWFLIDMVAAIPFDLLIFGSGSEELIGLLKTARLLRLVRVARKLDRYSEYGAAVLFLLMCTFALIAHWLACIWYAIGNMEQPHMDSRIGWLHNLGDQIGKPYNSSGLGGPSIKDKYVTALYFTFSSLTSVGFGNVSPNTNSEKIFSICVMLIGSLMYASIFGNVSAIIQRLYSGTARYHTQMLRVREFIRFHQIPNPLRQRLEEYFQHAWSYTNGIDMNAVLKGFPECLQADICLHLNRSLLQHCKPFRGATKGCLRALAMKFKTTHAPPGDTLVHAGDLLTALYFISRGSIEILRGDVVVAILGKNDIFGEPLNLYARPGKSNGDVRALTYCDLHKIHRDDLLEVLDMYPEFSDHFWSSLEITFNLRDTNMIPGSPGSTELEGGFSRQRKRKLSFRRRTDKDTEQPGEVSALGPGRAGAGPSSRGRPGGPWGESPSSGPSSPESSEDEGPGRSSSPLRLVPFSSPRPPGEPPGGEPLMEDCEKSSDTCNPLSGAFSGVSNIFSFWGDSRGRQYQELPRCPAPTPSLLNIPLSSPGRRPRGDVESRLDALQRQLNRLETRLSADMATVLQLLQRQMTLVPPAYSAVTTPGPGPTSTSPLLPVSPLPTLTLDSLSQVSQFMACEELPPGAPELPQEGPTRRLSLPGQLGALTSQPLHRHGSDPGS
value.type: IC50 (µM)
Lab book: enter the figure in µM, no units written.

Worked cases, IC50 given:
molecule	target.entity	display.unit	IC50
Cn1c(=O)ccc2ccc(F)c(OCCNC[C@@H]3CN(c4cnc5c(n4)NC(=O)CO5)C(=O)O3)c21 [Compound 3]	hERG potassium channel (Homo sapiens)	µM	25
Cn1c(=O)cnc2ccc(F)c(OCCNC[C@H]3CN(c4cnc5c(n4)NC(=O)CS5)C(=O)O3)c21 [Compound 10]	hERG potassium channel (Homo sapiens)	µM	19
Cn1c(=O)ccc2ccc(F)c(OCCNC[C@H]3CN(c4cnc5c(n4)NC(=O)CO5)C(=O)O3)c21 [Compound 2]	hERG potassium channel (Homo sapiens)	µM	124
CC(COc1c(F)ccc2ccc(=O)n(C)c12)NC[C@H]1CN(c2cnc3c(n2)NC(=O)CO3)C(=O)O1 (some centres unmarked) [Compound 4]	hERG potassium channel (Homo sapiens)	µM	36
Cc1cc(=O)n(C)c2c(OCCNC[C@H]3CN(c4cnc5c(n4)NC(=O)CO5)C(=O)O3)c(F)ccc12 [Compound 5]	hERG potassium channel (Homo sapiens)	µM	71

# input for lookup
Tell me its IC50 given Cn1c(=O)cnc2ccc(F)c(OCCNC[C@@H]3CN(c4cnc5c(n4)NC(=O)CO5)C(=O)O3)c21 [Compound 8] as the entry.
58
